Tested target: Gag-Pol polyprotein (Human immunodeficiency virus type 1 group M subtype B (isolate HXB2)) (UniProt P04585)
Protocol description: RNase H inhibition, HIV 1 Gag Pol polyprotein, FRET biochemical assay, screening (AID 372)
Condition summary: HIV-1 RT RNase H, FRET RNA/DNA substrate fluorescence; at 10 µM
The whole screen tested about 100,000 compounds, of which about 770 (0.77%) were called active. Rule as the data show it: active = inhibition above about 50%; inactive = the rest. The entries come from a sample that favours actives as a whole.
Please state which outcome applies, choosing from T = active, F = inactive

Some solved cases for reference:
{"Molecule": "CCOC(=O)C1=C(C)NC2=C(C(=O)CC(c3ccc(OC)cc3)C2)C1c1ccc(OC)c(OC)c1 (configuration not stated)", "Assigned class": "F"}
{"Molecule": "COc1ccc(CN2CCN(Cc3ccccc3C(F)(F)F)CC2)cc1Br", "Assigned class": "F"}
{"Molecule": "COc1ccc(-n2nnnc2SCC(=O)Nc2c(C)cc(C)cc2C)cc1", "Assigned class": "F"}

INPUT: What did this assay record as the result for O=C1C=CC(=O)N1c1ccc(-c2nc3ccc(N4C(=O)C=CC4=O)cc3[nH]2)cc1 ?
OUTPUT: F

INPUT: Assay result, entry COc1ccc(C(=O)CC(C(C)C)C(C=C(C)C)C(=O)c2ccc(OC)cc2)cc1 (configuration not stated) — outcome?
OUTPUT: F

INPUT: Record request — test call for COc1cc(/C=C(\C#N)C(=O)Nc2ccc(F)cc2)c([N+](=O)[O-])cc1OC
OUTPUT: F

INPUT: State the result this test recorded for O=C(NCc1ccco1)c1ccc(Cl)cc1 .
OUTPUT: F

INPUT: Short answer needed: outcome of this test for Oc1c(Br)cc(/C=N/Nc2nnc3c(n2)[nH]c2ccccc23)c(O)c1Br ?
OUTPUT: F

INPUT: Which result was noted for this molecule in the test: C=CCNC(=O)CN(c1cccc(OC)c1)S(=O)(=O)c1ccccc1
OUTPUT: F

INPUT: Kindly provide the recorded test outcome for the following molecule: COc1ccc(C(=O)Nc2ccc(I)cc2Cl)cc1OC
OUTPUT: F

INPUT: Would you mind telling me which call this test gave CCOC(=O)C1=C(C)NC2=C(C(=O)CC(c3ccc(OC)cc3)C2)C1c1ccccc1OC(C)C (configuration not stated) ?
OUTPUT: F

----------
Tested target: Gag-Pol polyprotein (Human immunodeficiency virus type 1 group M subtype B (isolate HXB2)) (UniProt P04585)
Protocol description: RNase H inhibition, HIV 1 Gag Pol polyprotein, FRET biochemical assay, screening (AID 372)
Condition summary: HIV-1 RT RNase H, FRET RNA/DNA substrate fluorescence; at 10 µM; hits give high values
The whole screen tested about 100,000 compounds, of which about 770 (0.77%) were called active. The list comes from a sample in which actives are over-represented; it also holds close analogues and randomly drawn compounds.
Measurement kind: inhibition (%)
Your answer is read as %, so omit the unit and give the number.

{"Compound": "O=C(Nc1ccc(S(=O)(=O)Nc2ncccn2)cc1)c1cccnc1", "Unit of measurement": "%", "inhibition": 8}
{"Compound": "CCOc1ccc(NC(=S)NC(=O)c2ccc(F)cc2)c([N+](=O)[O-])c1", "Unit of measurement": "%", "inhibition": 7}
{"Compound": "CC(=O)OCCNc1ccc2noc3c2c1C(=O)c1ccccc1-3", "Unit of measurement": "%", "inhibition": 0}

Short answer for CCOc1ccc(NC(=S)NC(=O)c2ccccc2)c([N+](=O)[O-])c1 : inhibition was 11

Entry O=C1NC(=Nc2ccc(F)cc2)S/C1=C/c1cccc(Br)c1 , inhibition reported as 40

Entry CCOc1ccc(N2C(=O)NC(=O)/C(=C\c3ccc(Sc4ccccc4)o3)C2=O)cc1 , inhibition reported as 15

Value of measured inhibition for the entry CS(=O)(=O)N/N=C/c1ccc2c(c1)OCO2 : 0

The value of inhibition measured for the compound CCCCNc1ccc2c3c(cc(=O)n2C)-c2ccccc2C(=O)c13 turned out to be 8

The measured inhibition associated with O=C(CSc1n[nH]c(-c2ccncc2)n1)c1ccc(O)cc1O reads 15

Reported inhibition of CCOc1ccc(NC(=S)NC(=O)/C=C/c2ccc(F)cc2)c([N+](=O)[O-])c1 : 84

Note to self: inhibition recorded for CCOc1ccc(N2C(=O)/C(=C/c3cc(Br)c(O)c(OC)c3)C(=O)NC2=S)cc1 was 11

Measured inhibition, COc1ccc(OC)c(C(=O)N/N=C/c2ccccn2)c1 : 3

# inhibition (compound: CCOC(=O)C1=C(O)/C(=C/c2ccc(O)c(OCC)c2)SC1=Nc1ccccc1 ) is 20

Entry CCOC(=O)C1=C(O)/C(=C/c2ccc(O)c(OC)c2)SC1=Nc1ccccc1 — recorded inhibition = 50

The compound listed as COc1cc(C(=O)N/C(=C/c2cccc([N+](=O)[O-])c2)C(=O)Nc2ccc(C)cc2)cc(OC)c1OC has a reported inhibition of 7

Reported inhibition for COCCOC(=O)c1ccc(NC(=O)C(C)Oc2ccc(Cl)cc2C)cc1 (configuration not stated) was 11

For reference, reported inhibition for CCOc1ccc(NC(=S)NC(=O)/C=C/c2ccc(OC)c(OC)c2)c([N+](=O)[O-])c1 stands at 2

Record Cc1ccc2oc(-c3cc(NC(=O)c4ccc(I)cc4)ccc3O)nc2c1 . Reported inhibition: 10

Kindly note the recorded inhibition for COc1cc(OC)cc(C(=O)N2CCN(Cc3ccccc3[N+](=O)[O-])CC2)c1 , which is 6

Looking up O=[N+]([O-])c1ccc(C=Nc2ccc(F)cc2)s1 , I found its inhibition recorded as 21

Record Cc1ccccc1C(=O)NNC(=S)Nc1ccccc1 , field inhibition: 7

Form field inhibition, entry CCc1ccc(OCCCCCCN2CCOCC2)cc1 : 8

----------
Each entry below lists one item and its recorded inhibition value.
Tested target: Gag-Pol polyprotein (Human immunodeficiency virus type 1 group M subtype B (isolate HXB2)) (UniProt P04585)
Protocol description: RNase H inhibition, HIV 1 Gag Pol polyprotein, FRET biochemical assay, screening (AID 372)
Condition summary: HIV-1 RT RNase H, FRET RNA/DNA substrate fluorescence; at 10 µM; hits give high values
Screen size: about 100,000 compounds; about 770 (0.77%) were called active. The sample holds actives, similar compounds and a random draw of the others, so the mix is not that of the screen.
Give the number; % is assumed, so skip it.

Sample records with inhibition:
{"Compound": "Cc1ccc(NS(=O)(=O)c2cc(Cl)ccc2Cl)c(C)c1", "inhibition / %": 20}
{"Compound": "COc1cc(/C=C2\\SC(=S)NC2=O)cc(Br)c1OC(=O)c1ccccc1", "inhibition / %": 58}
{"Compound": "CC1=C(C(=O)OCC2CCCO2)C(c2cc3c(cc2[N+](=O)[O-])OCO3)C2=C(CCCC2=O)N1 (configuration not stated)", "inhibition / %": 6}

The compound CCOc1cc(/C=C2\SC(=S)NC2=O)ccc1OCCOc1ccccc1Cl showed inhibition equal to 43

Entry COc1cc(/C=C2\SC(=S)NC2=O)cc(Br)c1OC , inhibition reported as 5

Sample COc1ccc(OC)c(NC(=O)c2ccc(Cl)cc2)c1 ; inhibition observed: 8

The reported value for Cc1cc(C)c(N2C(=O)c3ccc(-c4nc5ccccc5c(=O)o4)cc3C2=O)c(C)c1 in terms of inhibition is 54

get_value(item= CC(C)Nc1nc(-c2cccnc2)nc2ccccc12 , readout=inhibition) returns 8

Input Cc1cc(Br)ccc1N1C(=O)c2ccc(-c3nc4ccccc4c(=O)o3)cc2C1=O . Output inhibition: 59

inhibition recorded for this compound, COc1cc(/C=C2\SC(=S)NC2=O)cc(Cl)c1OCCOc1ccccc1Cl , is 26

// field: inhibition; key: COc1cc(/C=C2\SC(=S)NC2=O)cc(Br)c1OC(C)=O ; value = 4

Noted for Cc1ccc(C)c(NS(=O)(=O)c2cc(Cl)ccc2Cl)c1 : its inhibition reads 47

The reported inhibition of the compound COc1ccc(C2CC(=O)C3=C(C2)NC(C)=C(C(=O)OCC(C)C)C3c2cc3c(cc2Cl)OCO3)cc1 (configuration not stated) was 10

Form field inhibition, entry COc1cc(/C=C2/SC(=S)NC2=O)cc(Cl)c1OCC(C)COc1ccccc1 (configuration not stated) : 50

Briefly, inhibition measured for Cc1cccc(N2C(=O)c3ccc(-c4nc5ccccc5c(=O)o4)cc3C2=O)c1C : 10

Form field inhibition, entry COc1ccc(Br)cc1/C=C/C(=O)Nc1ccc(O)c(-c2nc3ccccc3o2)c1 : 14

----------
A collection of molecules and their measured inhibition
Tested target: Gag-Pol polyprotein (Human immunodeficiency virus type 1 group M subtype B (isolate HXB2)) (UniProt P04585)
Protocol description: RNase H inhibition, HIV 1 Gag Pol polyprotein, FRET biochemical assay, screening (AID 372)
Condition summary: HIV-1 RT RNase H, FRET RNA/DNA substrate fluorescence; at 10 µM; hits give high values
Among all 100,000 compounds or so, about 770 (0.77%) were called active. This excerpt belongs to a sample that is enriched for actives.
Write the value in % as a bare number.

{"Molecule": "COc1ccc(/C=C2/C(=O)NC(=O)N(Cc3ccco3)C2=O)c2ccccc12", "Unit of measurement": "%", "inhibition": 48}

Lab note: Cc1cccc(C)c1OCCOc1ccccc1/C=C1\SC(=S)N(C)C1=O gave inhibition of 13

Memo: CCOc1cc(/C=C2\SC(=S)N(/N=C/c3ccc(O)c(OCC)c3)C2=O)ccc1O , reported inhibition: 20

For CCN(CC)CCN1C(=O)C(=O)/C(=C(\O)c2ccc([N+](=O)[O-])cc2)C1c1ccc(OC)cc1 (centres undefined) the molecule record lists inhibition as 2

inhibition for O=C1NC(=O)N(Cc2ccco2)C(=O)/C1=C\c1cn(Cc2cccc(F)c2)c2ccccc12 is 57
